- Test system: SN12C
- experimental.protocol: NCI tumour cell line growth inhibition, 48 h
The source made the active and inactive calls. Rule as the data show it: active = GI50 up to about 1.1 µM and inactive = higher. *1 amine or outer side, *2 acyl side, *3 side chain or, on linkers, in order; H or OH if unused. Where a SMILES comes first, the peptide text is derived from it. Bridges are numbered along the chain shown (N, C = ends). Roman numbers before positions name the chains, in order. [ ]: non-standard residue; d: D form. Actinocin(9to1) = Cc1c2oc3c(C)ccc(C(=O)[*:1])c3nc-2c(C(=O)[*:2])c(N)c1=O; NMeV = CN[CH](C(=O)O)C(C)C; Sar = CNCC(=O)O
Respond using exactly one of the listed classes: 1 (active), 0 (inactive)

Previously resolved entries follow.
{"columns": ["molecule", "label.value"],
 "data": [
  ["Cc1c2oc3c(C)ccc(C(=O)NC4C(=O)NC(C(C)O)C(=O)N5CCCC5C(=O)N(C)CC(=O)N(C)C(C(C)C)C(=O)OC4C)c3nc-2c(C(=O)NC2C(=O)NC(C(C)O)C(=O)N3CCCC3C(=O)N(C)CC(=O)N(C)C(C(C)C)C(=O)OC2C)c(N)c1=O (configuration not stated) (I: TTP[Sar][NMeV] / II: TTP[Sar][NMeV]; ester I:1-I:C, II:1-II:C; linker I:N-II:N via Actinocin(9to1); configuration not given here)", 1],
  ["Cc1oc2c(Cl)cc(O)c(Cl)c2c2cccc1-2", 0],
  ["NN=C(S)Nc1cccc(Cl)c1", 0]
]}

Data request: Could you please tell me the result logged for "COc1cccc(CCCNC(=O)Cc2cc(OC)c(OC)cc2CO)c1" in this assay?
Data returned: 0

Data request: Could you please tell me the result logged for "CCCCCCCCCCCCNC(=S)OC" in this assay?
Data returned: 0

Data request: Could you please tell me the result logged for CC(=O)OCC1OC(n2c(=O)[nH]c(=O)c3nn[nH]c32)C(OC(C)=O)C(OC(C)=O)C1OC(C)=O (configuration not stated) in this assay?
Data returned: 0

Data request: Could you please tell me the result logged for CC1(CO)COS(=O)OC1 (configuration not stated) in this assay?
Data returned: 0

###

- Test system: NCI-H460
- experimental.protocol: NCI tumour cell line growth inhibition, 48 h
Activity calls are given as the source filed them. Cut-off read from the data, not from the text of the source: active = GI50 up to about 1.1 µM and inactive = higher.
Respond using exactly one of the listed classes: active, inactive

{"columns": ["compound", "label.value"],
 "data": [
  ["CSC1(C)C(=O)Nc2c(OCc3ccccc3)cc([N+](=O)[O-])cc21 (stereo unspecified)", "inactive"]
]}

Data request: Could you please tell me the result logged for "COc1ccc2c(Cc3c4ccccc4cc4ccccc34)cncc2c1O" in this assay?
Data returned: inactive

Data request: Could you please tell me the result logged for "N#CCCN(CCCCN(CCC#N)C(=O)Nc1ccccc1)C(=O)Nc1ccccc1" in this assay?
Data returned: inactive

###

Can you tell me GI50 for the items I'm about to list?
- System: SN12C
- experimental.protocol: NCI tumour cell line growth inhibition, 48 h
Activity calls are given as the source filed them. Cut-off read from the data, not from the text of the source: active = GI50 up to about 1.1 µM and inactive = higher.

{"columns": ["compound", "GI50"],
 "data": [
  ["O=C1Nc2c(Cl)cc(Cl)cc2/C1=N/NC(=O)c1ccccc1O", "16.7 µM (inactive)"],
  ["CCCCCCCCCCCCn1[nH]c(C)c(C(=S)SCCCCCCCC)c1=O", "86.3 µM (inactive)"],
  ["COC(=O)/C=C\\COCC1C2CCC(=O)C21 (stereo not given)", "> 25 µM (inactive)"],
  ["CCCCCCCCCc1c(O)c(O)c(CCCCCCCCC)c(CCCCCCCCC)c1CCCCCCCCC", "> 100 µM (inactive)"],
  ["N#C/C(=C\\c1ccc2ccccc2c1)c1ccccc1", "39.8 µM (inactive)"],
  ["ClC(/N=N/c1ccccc1)=N/Nc1ccccc1", "> 100 µM (inactive)"],
  ["CN(C)NC(=O)/C(=C/c1ccc(Cl)cc1)NC(=O)c1ccccc1", "> 100 µM (inactive)"],
  ["Cc1cc(N(CCC#N)CCC#N)ccc1/C=C1\\N=C(c2cc([N+](=O)[O-])ccc2Cl)N(NC(=O)c2ccc(/N=C\\c3ccc(N(CCC#N)S(C)(=O)=O)cc3C)cc2)C1=O", "> 100 µM (inactive)"]
]}

Give GI50 for each listed item.
1. O=C1c2ccccc2C(=O)c2[nH]c(=O)c(/C=N/Nc3ccc([N+](=O)[O-])cc3)nc21
2. N/N=C(\Cc1ccccc1)NN=C(N)N

Data returned:
1: 11.9 µM (inactive); 2: > 100 µM (inactive)
